Parameter: growth inhibition. Scope: all listed entries.
Test: NCI Yeast Anticancer Drug Screen. Data for the mec2-1 strain (AID 157)
Conditions: S. cerevisiae mec2-1 strain, at 50.0 µM, stronger effect = higher value
About 79,000 compounds went through this panel and 15% of them were active in at least one assay; those are over-represented in the sample as a whole.

| COMPOUND | DISPLAY UNIT | growth inhibition |
| --- | --- | --- |
| Cn1cnc(N)c1S(N)(=O)=O | % | 2.45 |
| O=C(O)C1C(c2ccccc2)CC(=O)N1c1ccc(Cl)cc1 (configuration not stated) | % | 8.25 |
| O=[N+]([O-])c1ccc(S(=O)c2ccc([N+](=O)[O-])cc2)cc1 | % | 11.6 |
| COc1ccc(SSc2ccc(OC)cc2)cc1 | % | -1.1 |
| CC1=C/C(=N/Nc2ccc([N+](=O)[O-])cc2[N+](=O)[O-])CC(C)(C)C1 | % | -27.2 |
| Cc1csc(NC(=O)C2C3CCC(O3)C2C(=O)O)n1 (configuration not stated) | % | -11.2 |
| Cc1ccc(/C=C/c2cc(/C=C/c3ccc(C)cc3)c([N+](=O)[O-])cc2[N+](=O)[O-])cc1 | % | -15.2 |
| COc1ccccc1/C=C/c1nc2ccccc2o1 | % | 19.7 |
| CCOC(=O)CCC(NC(=O)c1ccc(NC)c([N+](=O)[O-])c1)C(=O)OCC (configuration not stated) | % | -1.9 |
| COC(=O)c1cccc2ccc3cccc(C=O)c3c12 | % | 6.6 |
| Nc1ncnc(N2CCOCC2)n1 | % | -41.3 |
| CCN(CC)CCN(CC)CCN(CC)CC | % | 5.65 |
